Source listed as patent US20130133089A1.

Entries annotated with measured Bmax
Molecular target: T1, Recombinant human leptin binding domain (hLBD) (human, UniProt P48357 428-635, biotinylated with Sulfo-NHS-LC-Biotin in the yeast display assays; not labelled when immobilized in the plate binding assay)
T1 construct: CRH2 sub-domain of the leptin receptor; Prepared in the applicants' laboratory; also called soluble human leptin receptor; CHR2
T1 sequence (looked up): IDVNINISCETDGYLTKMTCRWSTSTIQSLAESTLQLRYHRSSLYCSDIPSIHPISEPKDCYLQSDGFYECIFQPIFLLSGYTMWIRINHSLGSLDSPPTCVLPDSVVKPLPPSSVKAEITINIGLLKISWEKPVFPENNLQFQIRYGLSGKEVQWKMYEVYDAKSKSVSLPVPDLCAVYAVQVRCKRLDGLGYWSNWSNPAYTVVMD
Experiment: yeast display, flow cytometry titration with biotinylated hLBD (FIG. 4A)
Please give a number only; it is taken to be in MFI.

Use these answered entries as a reference point.
>  <Binder>
yeast-displayed mouse leptin clone H7 (K11R, Q34R, T37A, F92C, S97Y, I136V) (ligand, UniProt P41160 22-167, looked up, not shown: large carriers; small tags and cut ends, mature; also called H18; H27) VPIQKVQDDTRTLIKTIVTRINDISHTQSVSAKRRVAGLDFIPGLHPILSLSKMDQTLAVYQQVLTSLPSQNVLQIANDLENLRDLLHLLACSKSCYLPQTSGLQKPESLDGVLEASLYSTEVVALSRLQGSLQDVLQQLDVSPEC

>  <Bmax [MFI]>
1590

$$$$
>  <Binder>
yeast-displayed mouse leptin clone H19 (D23G, T37A, G44D) (ligand, UniProt P41160 22-167, looked up, not shown: large carriers; small tags and cut ends, mature) VPIQKVQDDTKTLIKTIVTRINGISHTQSVSAKQRVAGLDFIPDLHPILSLSKMDQTLAVYQQVLTSLPSQNVLQIANDLENLRDLLHLLAFSKSCSLPQTSGLQKPESLDGVLEASLYSTEVVALSRLQGSLQDILQQLDVSPEC

>  <Bmax [MFI]>
968

$$$$

Then there is this binder:
Query: What does the record list as Bmax for yeast-displayed mouse leptin clone H22 (T12I) (ligand, UniProt P41160 22-167, looked up, not shown: large carriers; small tags and cut ends, mature) VPIQKVQDDTKILIKTIVTRINDISHTQSVSAKQRVTGLDFIPGLHPILSLSKMDQTLAVYQQVLTSLPSQNVLQIANDLENLRDLLHLLAFSKSCSLPQTSGLQKPESLDGVLEASLYSTEVVALSRLQGSLQDILQQLDVSPEC ?
Reply: 852
